system: Expi293 cells; details: luminescence at Tfinal (22 hours) divided by Tinitial, measure of ATP levels, reflective of cell health
Bridge positions count the residues as written; N and C are the ends. Square brackets hold non-standard residues; d marks the D form. Peptide text beside a SMILES is read from it. R8 = C=CCCCCCC[C@@](C)(N)C(=O)O; S5 = C=CCCC[C@](C)(N)C(=O)O; Nle = CCCC[C@H](N)C(=O)O
measured property: CellTiter-Glo fold change ± SD
Give the figure only, with no unit attached.

What does the data say about its CellTiter-Glo fold change ± SD? Entry: CCCC[C@H](NC(=O)[C@@H](NC(C)=O)[C@@H](C)CC)C(=O)N[C@@H](C)C(=O)N[C@]1(C)CCCCCCC=CCCC[C@@](C)(C(=O)N[C@@H](CCC(N)=O)C(=O)N[C@@H](Cc2ccc(O)cc2)C(=O)N[C@@H](CC(N)=O)C(N)=O)NC(=O)[C@H](Cc2c[nH]c3ccccc23)NC(=O)[C@H](Cc2ccccc2)NC(=O)[C@H](C)NC(=O)[C@H](C)NC(=O)[C@H](CCC(N)=O)NC(=O)[C@H](Cc2ccc(O)cc2)NC1=O [FP08024] (Ac-I[Nle]A[R8]YQAAFW[S5]QYN-NH2; staple 4-11)
1.2

What does the data say about its CellTiter-Glo fold change ± SD? Entry: CC[C@H](C)[C@H](NC(C)=O)C(=O)N[C@@H](CC(C)C)C(=O)N[C@@H](CCC(N)=O)C(=O)N[C@]1(C)CCCCCCC=CCCC[C@@](C)(C(=O)N[C@@H](Cc2c[nH]cn2)C(=O)N[C@@H](Cc2ccc(O)cc2)C(=O)N[C@@H](CCC(N)=O)C(N)=O)NC(=O)[C@H](CO)NC(=O)[C@H](Cc2ccccc2)NC(=O)[C@H](C)NC(=O)[C@H](C)NC(=O)[C@H](CCC(=O)O)NC(=O)[C@H](Cc2ccc(O)cc2)NC1=O [FP07860] (Ac-ILQ[R8]YEAAFS[S5]HYQ-NH2; staple 4-11)
1.2

What does the data say about its CellTiter-Glo fold change ± SD? Entry: CCCC[C@H](NC(=O)[C@H](Cc1ccc(O)cc1)NC(=O)[C@H](CCC(N)=O)NC(=O)[C@]1(C)CCCC=CCCCCCC[C@@](C)(NC(=O)[C@H](CCC(=O)O)NC(=O)[C@H](CC(C)C)NC(=O)[C@@H](NC(C)=O)[C@@H](C)CC)C(=O)N[C@@H](Cc2ccc(O)cc2)C(=O)N[C@@H](CCC(=O)O)C(=O)N[C@@H](C)C(=O)N[C@@H](C)C(=O)N[C@@H](Cc2ccccc2)C(=O)N[C@@H](CCC(=O)O)C(=O)N1)C(N)=O [FP08017] (Ac-ILE[R8]YEAAFE[S5]QY[Nle]-NH2; staple 4-11)
1.2
